Please go through the items and note down their EC50.
System: Staphylococcus aureus
experimental.details: Antibacterial activity against methicillin-sensitive Staphylococcus aureus ATCC 25923 assessed as decrease of CFU after 24 hrs
Assay type: functional, organism-based
condition.description: ATCC 25923, 24 h
Expressed in µg/mL, but write only the number.

Lookup: May I ask what EC50 has been recorded for CC[C@H]1OC(=O)[C@H](C)[C@@H](O[C@H]2C[C@@](C)(OC)[C@@H](O)[C@H](C)O2)[C@H](C)[C@@H](O[C@@H]2O[C@H](C)C[C@H](N(C)C)[C@H]2O)[C@](C)(OC)C[C@@H](C)C(=O)[C@H](C)[C@@H](O)[C@]1(C)O ?
Found: 0.8

Lookup: Recorded EC50 of CC[C@H]1OC(=O)[C@H](C)[C@@H](O[C@H]2C[C@@](C)(OC)[C@@H](O)[C@H](C)O2)[C@H](C)[C@@H](O[C@@H]2O[C@H](C)C[C@H](N(C)C)[C@H]2O)[C@](C)(O)C[C@@H](C)CN(C)[C@H](C)[C@@H](O)[C@]1(C)O , please.
Found: 0.12

Lookup: // lookup EC50 for CC[C@H]1OC(=O)[C@H](C)C(=O)[C@H](C)[C@@H](O[C@@H]2O[C@H](C)C[C@H](N(C)C)[C@H]2O)[C@](C)(OC)C[C@@H](C)C(=O)[C@H](C)[C@H]2N(CCCCn3cnc(-c4cccnc4)c3)C(=O)O[C@]12C
Found: 1.78

Lookup: Could you tell me which EC50 is on file for CC[C@H]1OC(=O)[C@@](C)(F)C(=O)[C@H](C)[C@@H](O[C@@H]2O[C@H](C)C[C@H](N(C)C)[C@H]2O)[C@](C)(OC)C[C@@H](C)C(=O)[C@H](C)[C@H]2N(CCCCn3cc(-c4cccc(N)c4)nn3)C(=O)O[C@]12C ?
Found: 0.03

Source listed as ChEMBL document CHEMBL1687740.
